Recorded values, source PubChem BioAssay (NCI).

tested on: HCT-116 colon; experiment: NCI-60 one-dose screen, 48 h (100 = growth as untreated, 0 = no growth, -100 = all killed); settings: 10 µM unless noted
Compounds without any hit were thinned out: in the full panel of roughly 83,000, 20% have a hit.

>  <COMPOUND>
O=C(/C=C/c1ccc(-c2ccccc2)cc1)c1nc2ccccc2n1Cc1ccc(F)cc1

>  <growth [%]>
13.8

$$$$
>  <COMPOUND>
O=C(COc1ccc(NC(=O)Nc2ccc(Cl)cc2)cc1)N/N=C/c1ccccc1

>  <growth [%]>
-40

$$$$
>  <COMPOUND>
CCCCc1c(Nn2cnnn2)no[n+]1[O-]

>  <growth [%]>
38.2

$$$$
>  <COMPOUND>
C=C1CC[C@@H]2[C@]3(C)COC(c4cn[nH]c4-c4ccccc4)O[C@@H]3CC[C@@]2(C)[C@@H]1C/C=C1/C(=O)OCC1O (some centres undefined)

>  <growth [%]>
-20.3

$$$$
>  <COMPOUND>
CN(C)c1nc(NCCNS(=O)(=O)c2ccc(C3=Nc4c(N)nc(N)nc4NC(c4ccc(C(F)(F)F)cc4)C3)cc2)nc(Nc2ccc(F)cc2)n1 (centres undefined)

>  <growth [%]>
2.12

$$$$
>  <COMPOUND>
O=C1c2c(c3c4cc(F)ccc4oc3c3[nH]c4ccc(Br)cc4c23)C(=O)N1O

>  <growth [%]>
34.5

$$$$
>  <COMPOUND>
O=C(c1ccccc1)c1ccc2nc(-c3ccc(F)cc3)[nH]c2c1

>  <growth [%]>
41.7

$$$$
>  <COMPOUND>
COc1ccc(C(=O)/C=C/c2ccccc2Cl)cc1S(N)(=O)=O

>  <growth [%]>
106

$$$$
>  <COMPOUND>
CN(C)CCCNC(=O)c1cc(NC(=O)c2cc(NC(=O)c3ccc(C#Cc4ccccc4)cc3)cn2C)cn1C

>  <growth [%]>
-92.4

$$$$
